FYI, the data here is from patent US20140315251A1.

target: Recombinant canine IL-31 produced in CHO cells (canine); test: cell-based or functional assay
Sequence (chain, as listed by the source limits assumed, form in doubt): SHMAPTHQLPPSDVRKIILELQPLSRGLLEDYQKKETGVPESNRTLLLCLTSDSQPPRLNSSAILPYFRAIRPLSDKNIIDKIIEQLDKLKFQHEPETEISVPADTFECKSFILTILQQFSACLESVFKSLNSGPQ
We begin with a simple list: items and their reported DH82 pSTAT Assay, Pre-treatment IC50.
# output: bare number, implied unit µg/ml

Mouse 19D07 (antibody, V domains shown) VH: EVKLVESGGGLVKPGGSLKLSCAASGFAFSSYDMSWVRQIPEKRLEWVATITSGGGYTYSADSVKGRFTISRDNARNTLYLQMSSLRSEDTAVYYCARQNWVVGLAYWGQGTLVTVSA VL: DIVMSQSPSSLSVSAGDKVTMSCKSSQSLLNSGNQKNYLAWYQQKPWQPPKLLIYGASTRESGVPDRFTGSGSGTDFTLTISSVQAEDLAVYYCQNDYSYPYTFGGGTKLEIK    3.46

Turning to the following binder.
Query: What value of measured DH82 pSTAT Assay, Pre-treatment IC50 is listed for 11E12 Heterochimera (antibody, V domains shown) VH: EVQLVQSGAEVKKPGASVKVSCKTSGYTFKYYDINWVRQAPGAGLDWMGWIFPGDGGTKYNETFKGRVTLTADTSTSTAYMELSSLRAGDIAVYYCARGGTSVIRDAMDYWGQGTLVTVSS VL: DIVLTQSPASLAVSLGQRATISCRASESVDNYGISFMHWYQQKPGQPPKLLIYRASNLESGIPARFSGSGSRTDFTLTINPVETDDVATYYCQQSNKDPLTFGAGTKLELKR ?
Response: 3.35
